These data points were gathered from patent US20120135091A1.

- Tested on: C57BL/6 mice
- Experimental Setup: infusion, primary screen
Experimental Endpoint: reduction of body (subcutaneous) temperature

Test Smiles | Result
SCCOCCS | reduced body temperature
O=C(O)CS | reduced body temperature
